- study.system: ATM (Homo sapiens)
- Construct: detecting phosphorylation of Chk2 in a human non-small cell lung cancer cell line NCI-H460 (ATCC company); host or cells: NCI-H460 human non-small cell lung cancer cells
- run.description: ATM inhibition test (phosphorylation of Chk2 generated by ionizing radiation, AlphaScreen SureFire)
- Type: cell-based
- test.conditions: phosphorylated Chk2 in NCI-H460 cells, ionizing radiation 8Gy, 1 hour after test compound treatment; read-out: ATM inhibitory activity
Measured IC50 accompanies every entry in the list below.

INSERT INTO results (compound, result) VALUES
  ('O=c1cc(N2CCOCC2)cc(-c2cccc3c2Oc2ccc(N[C@H]4CCN(Cc5ccccc5)C[C@@H]4O)cc2C3)[nH]1 (relative stereo)', '100 to 500 nM'),
  ('CC(Nc1ccc2c(c1)Cc1cccc(-c3cc(N4CCOCC4)cc(=O)[nH]3)c1O2)c1cccc(F)n1 (single isomer, unassigned) [Example 2-14-87-2]', '100 to 500 nM'),
  ('O=c1cc(N2CCOCC2)cc(-c2cccc3c2Oc2ccc(NCc4cncc(Br)c4)cc2S3)[nH]1', '< 100 nM'),
  ('O=c1cc(N2CCOCC2)cc(-c2cccc3c2Oc2ccc(NC4CCN(CCc5ccncc5)CC4)cc2C3)[nH]1', '100 to 500 nM');

Looking up O=c1cc(N2CCOCC2)cc(-c2nccc3c2Oc2ccc(NCc4cncc(C5CC5)c4)cc2C3)[nH]1 , I see its IC50 listed as 100 to 500 nM

The recorded IC50 for entry Nc1ncccc1CNc1ccc2c(c1)Cc1cccc(-c3cc(N4CCOCC4)cc(=O)[nH]3)c1O2 equals 100 to 500 nM

###

- study.system: ATM (Homo sapiens)
- Construct: detecting phosphorylation of Chk2 in a human non-small cell lung cancer cell line NCI-H460 (ATCC company); host or cells: NCI-H460 human non-small cell lung cancer cells
- run.description: ATM inhibition test (phosphorylation of Chk2 generated by ionizing radiation, AlphaScreen SureFire)
- Assay type: cell-based
- test.conditions: phosphorylated Chk2 in NCI-H460 cells, ionizing radiation 8Gy, 1 hour after test compound treatment; read-out: ATM inhibitory activity
pIC50: −log10 of the molar value.
value.type: pIC50

Some solved entries appear below for comparison.
INSERT INTO results (compound, study_system, value_type, result) VALUES
  ('CC(CNc1ccc2c(c1)Sc1cccc(-c3cc(N4CCOCC4)cc(=O)[nH]3)c1S2)N1CCOCC1 (racemic) [Example 1-9-2-1]', 'ATM (Homo sapiens)', 'pIC50', '> 7.00'),
  ('COc1cc(CNc2ccc3c(c2)Cc2ccnc(-c4cc(N5CCOCC5)cc(=O)[nH]4)c2O3)cnc1OC [Example 2-41-10]', 'ATM (Homo sapiens)', 'pIC50', '6.30 to 7.00'),
  ('CN1CCC(CNc2ccc3c(c2)Sc2cccc(-c4cc(N5CCOCC5)cc(=O)[nH]4)c2S3)CC1 [Example 1-12-31]', 'ATM (Homo sapiens)', 'pIC50', '6.30 to 7.00'),
  ('COc1ccc(CNc2ccc3c(c2)Cc2cccc(-c4cc(N5CCOCC5)cc(=O)[nH]4)c2O3)cc1 [Example 2-40]', 'ATM (Homo sapiens)', 'pIC50', '6.30 to 7.00'),
  ('Cc1ccnc(C(C)Nc2ccc3c(c2)Sc2cccc(-c4cc(N5CCOCC5)cc(=O)[nH]4)c2S3)n1 (stereo not shown) [Example 1-12-69]', 'ATM (Homo sapiens)', 'pIC50', '> 7.00'),
  ('CC(Nc1ccc2c(c1)Sc1cccc(-c3cc(N4CCOCC4)cc(=O)[nH]3)c1S2)C(=O)N1CCOCC1 (stereo not shown) [Example 1-18-5]', 'ATM (Homo sapiens)', 'pIC50', '5.70 to 6.30');

Please find the next compound below.
Kindly note the recorded pIC50 for O=c1cc(N2CCOCC2)cc(-c2cccc3c2Sc2ccc(NCCN4CCOCC4)cc2C3)[nH]1 [Example 3-4-1] , which is 5.70 to 6.30

###

- study.system: ATM (Homo sapiens, UniProt Q13315)
- Construct: detecting phosphorylation of Chk2 in a human non-small cell lung cancer cell line NCI-H460 (ATCC company); host or cells: NCI-H460 human non-small cell lung cancer cells
- Sequence (Q13315 whole entry): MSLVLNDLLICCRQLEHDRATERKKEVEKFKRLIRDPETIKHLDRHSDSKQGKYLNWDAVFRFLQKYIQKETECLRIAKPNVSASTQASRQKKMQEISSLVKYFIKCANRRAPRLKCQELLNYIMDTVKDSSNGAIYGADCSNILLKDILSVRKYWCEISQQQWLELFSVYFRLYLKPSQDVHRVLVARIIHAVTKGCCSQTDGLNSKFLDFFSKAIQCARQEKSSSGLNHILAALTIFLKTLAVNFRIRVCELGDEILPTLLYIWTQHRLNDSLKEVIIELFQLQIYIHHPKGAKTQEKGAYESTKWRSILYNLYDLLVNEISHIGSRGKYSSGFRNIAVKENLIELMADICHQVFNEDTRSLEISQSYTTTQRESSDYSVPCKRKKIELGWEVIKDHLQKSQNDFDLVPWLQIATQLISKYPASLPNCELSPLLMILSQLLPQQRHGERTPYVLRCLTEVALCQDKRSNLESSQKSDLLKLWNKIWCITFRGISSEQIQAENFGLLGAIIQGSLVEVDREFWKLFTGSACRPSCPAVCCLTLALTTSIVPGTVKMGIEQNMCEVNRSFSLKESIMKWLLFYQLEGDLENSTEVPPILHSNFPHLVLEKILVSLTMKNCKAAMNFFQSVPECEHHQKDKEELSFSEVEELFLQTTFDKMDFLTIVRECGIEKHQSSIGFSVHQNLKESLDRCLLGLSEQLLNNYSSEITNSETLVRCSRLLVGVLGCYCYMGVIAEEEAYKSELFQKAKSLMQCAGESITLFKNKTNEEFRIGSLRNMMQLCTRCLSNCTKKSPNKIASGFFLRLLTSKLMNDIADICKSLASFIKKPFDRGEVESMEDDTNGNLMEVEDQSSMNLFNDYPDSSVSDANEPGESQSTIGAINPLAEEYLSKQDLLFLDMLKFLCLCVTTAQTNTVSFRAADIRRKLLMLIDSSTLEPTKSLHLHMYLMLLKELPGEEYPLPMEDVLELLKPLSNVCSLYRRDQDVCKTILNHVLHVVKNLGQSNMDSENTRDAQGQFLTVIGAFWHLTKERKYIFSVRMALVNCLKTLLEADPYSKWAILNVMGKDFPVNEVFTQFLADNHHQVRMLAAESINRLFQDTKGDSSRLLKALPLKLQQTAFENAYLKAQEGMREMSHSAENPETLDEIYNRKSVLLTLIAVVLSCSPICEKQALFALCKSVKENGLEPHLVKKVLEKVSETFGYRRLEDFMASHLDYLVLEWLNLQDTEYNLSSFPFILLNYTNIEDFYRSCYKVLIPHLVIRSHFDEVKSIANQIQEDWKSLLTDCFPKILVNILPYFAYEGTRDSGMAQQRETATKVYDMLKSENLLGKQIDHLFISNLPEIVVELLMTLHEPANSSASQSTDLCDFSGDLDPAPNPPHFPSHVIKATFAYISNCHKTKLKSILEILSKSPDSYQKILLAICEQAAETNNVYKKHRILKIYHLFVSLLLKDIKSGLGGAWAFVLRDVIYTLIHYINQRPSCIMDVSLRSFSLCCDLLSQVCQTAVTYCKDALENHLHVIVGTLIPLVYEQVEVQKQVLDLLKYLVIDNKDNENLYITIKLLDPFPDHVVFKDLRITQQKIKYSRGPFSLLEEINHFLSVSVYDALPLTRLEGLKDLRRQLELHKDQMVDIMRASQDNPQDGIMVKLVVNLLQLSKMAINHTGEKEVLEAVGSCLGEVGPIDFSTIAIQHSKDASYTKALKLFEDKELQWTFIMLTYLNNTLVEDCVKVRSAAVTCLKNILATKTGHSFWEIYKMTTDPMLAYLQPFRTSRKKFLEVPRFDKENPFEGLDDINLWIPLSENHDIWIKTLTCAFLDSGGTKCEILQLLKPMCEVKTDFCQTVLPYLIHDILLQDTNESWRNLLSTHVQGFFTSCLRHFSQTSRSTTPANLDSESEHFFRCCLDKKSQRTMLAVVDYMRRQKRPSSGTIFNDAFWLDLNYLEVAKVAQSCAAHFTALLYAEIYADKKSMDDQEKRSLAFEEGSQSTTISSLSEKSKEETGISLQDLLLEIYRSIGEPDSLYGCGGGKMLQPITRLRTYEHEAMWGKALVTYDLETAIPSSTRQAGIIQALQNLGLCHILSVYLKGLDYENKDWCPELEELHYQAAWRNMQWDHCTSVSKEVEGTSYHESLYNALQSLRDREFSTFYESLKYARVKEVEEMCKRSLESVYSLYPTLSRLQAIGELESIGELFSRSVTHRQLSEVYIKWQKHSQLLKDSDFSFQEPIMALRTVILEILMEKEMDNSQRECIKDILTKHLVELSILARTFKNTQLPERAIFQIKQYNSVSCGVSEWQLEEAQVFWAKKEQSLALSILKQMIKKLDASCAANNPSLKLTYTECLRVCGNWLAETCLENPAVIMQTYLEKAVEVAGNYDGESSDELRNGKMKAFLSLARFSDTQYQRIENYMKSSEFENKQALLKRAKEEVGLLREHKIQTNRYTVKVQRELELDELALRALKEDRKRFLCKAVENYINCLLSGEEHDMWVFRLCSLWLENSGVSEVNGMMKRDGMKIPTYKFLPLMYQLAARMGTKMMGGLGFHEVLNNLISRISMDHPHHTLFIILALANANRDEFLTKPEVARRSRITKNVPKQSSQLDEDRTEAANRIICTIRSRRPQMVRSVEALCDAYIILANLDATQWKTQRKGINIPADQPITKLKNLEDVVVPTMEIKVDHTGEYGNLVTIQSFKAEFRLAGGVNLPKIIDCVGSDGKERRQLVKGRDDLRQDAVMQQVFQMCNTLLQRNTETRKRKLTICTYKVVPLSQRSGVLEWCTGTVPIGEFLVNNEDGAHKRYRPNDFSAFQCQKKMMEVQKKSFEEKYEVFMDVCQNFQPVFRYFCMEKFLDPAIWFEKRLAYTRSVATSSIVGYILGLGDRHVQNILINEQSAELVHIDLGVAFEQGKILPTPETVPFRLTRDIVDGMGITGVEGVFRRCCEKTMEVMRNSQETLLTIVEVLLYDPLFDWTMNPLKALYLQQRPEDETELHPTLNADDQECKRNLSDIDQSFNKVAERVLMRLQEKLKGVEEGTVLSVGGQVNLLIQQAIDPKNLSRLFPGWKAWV
- run.description: ATM inhibition test (phosphorylation of Chk2 generated by ionizing radiation, AlphaScreen SureFire)
- Assay type: cell-based
- test.conditions: phosphorylated Chk2 in NCI-H460 cells, ionizing radiation 8Gy, 1 hour after test compound treatment; read-out: ATM inhibitory activity
value.type: IC50

Field: example entries. Status: answers known.
INSERT INTO assay_data (molecule, value_type, result) VALUES
  ('COc1ccnc(C(C)Nc2ccc3c(c2)Cc2cccc(-c4cc(N5CCOCC5)cc(=O)[nH]4)c2O3)n1 (stereo not drawn) [Example 2-14-56]', 'IC50', '100 to 500 nM'),
  ('Cc1ccnc(C(CN2CCOCC2)Nc2ccc3c(c2)Sc2cccc(-c4cc(N5CCOCC5)cc(=O)[nH]4)c2S3)n1 (stereo not drawn) [Example 1-13-18]', 'IC50', '500 to 2000 nM'),
  ('Cc1ccnc(C(CO)Nc2ccc3c(c2)Sc2cccc(-c4cc(N5CCOCC5)cc(=O)[nH]4)c2S3)c1 (single isomer, unassigned) [Example 1-12-138-1]', 'IC50', '100 to 500 nM'),
  ('Cc1ccc(C(Nc2ccc3c(c2)Sc2cccc(-c4cc(N5CCOCC5)cc(=O)[nH]4)c2S3)C2CCCN(C)C2)nc1 (stereo not drawn) [Example 1-22-10]', 'IC50', '< 100 nM'),
  ('CC(Nc1ccc2c(c1)Cc1cccc(-c3cc(N4CCOCC4)cc(=O)[nH]3)c1O2)C(=O)N1CCCC1 (stereo not drawn) [Example 2-15]', 'IC50', '100 to 500 nM');

In the following, a different molecule is considered.
Value of measured IC50 for the entry Cc1ccc(C(C)Nc2ccc3c(c2)Sc2cccc(-c4cc(N5CCOCC5)cc(=O)[nH]4)c2S3)nc1 (stereo not drawn) [Example 1-12-113] : < 100 nM

###

- study.system: ATM (Homo sapiens)
- Construct: detecting phosphorylation of Chk2 in a human non-small cell lung cancer cell line NCI-H460 (ATCC company); host or cells: NCI-H460 human non-small cell lung cancer cells
- run.description: ATM inhibition test (phosphorylation of Chk2 generated by ionizing radiation, AlphaScreen SureFire)
- Format: cell-based
- test.conditions: phosphorylated Chk2 in NCI-H460 cells, ionizing radiation 8Gy, 1 hour after test compound treatment; read-out: ATM inhibitory activity
pIC50: −log10 of the molar value.
value.type: pIC50

Solved cases below.
INSERT INTO results (compound, value_type, result) VALUES
  ('O=c1cc(N2CCOCC2)cc(-c2cccc3c2Oc2ccc(NCc4cncnc4)cc2C3)[nH]1 [Example 2-3-2]', 'pIC50', '6.30 to 7.00'),
  ('O=c1cc(N2CCOCC2)cc(-c2cccc3c2Oc2ccc(NC4CCN(Cc5ccc(OC6CCOCC6)nc5)CC4)cc2C3)[nH]1 [Example 2-28-21]', 'pIC50', '6.30 to 7.00'),
  ('O=c1cc(N2CCOCC2)cc(-c2cccc3c2Cc2ccc(NCc4ccc(Cl)nc4)cc2O3)[nH]1 [Example 6]', 'pIC50', '5.70 to 6.30'),
  ('COc1cccc(CNc2ccc3c(c2)Cc2ccnc(-c4cc(N5CCOCC5)cc(=O)[nH]4)c2O3)n1 [Example 2-42-7]', 'pIC50', '5.70 to 6.30'),
  ('CN(C)c1ccc(CN2CCC(Nc3ccc4c(c3)Cc3cccc(-c5cc(N6CCOCC6)cc(=O)[nH]5)c3O4)CC2)cn1 [Example 2-28-9]', 'pIC50', '6.30 to 7.00'),
  ('Cc1cccc(C(CO)Nc2ccc3c(c2)Cc2cccc(-c4cc(N5CCOCC5)cc(=O)[nH]4)c2O3)n1 (single isomer, unassigned) [Example 2-14-92-1]', 'pIC50', '5.70 to 6.30'),
  ('N#Cc1cccc(CNc2cccc3c2Cc2cccc(-c4cc(N5CCOCC5)cc(=O)[nH]4)c2O3)c1 [Example 2-56-4]', 'pIC50', '6.30 to 7.00'),
  ('Cc1cnc(C(CCN2CCN(C)CC2)Nc2ccc3c(c2)Sc2cccc(-c4cc(N5CCOCC5)cc(=O)[nH]4)c2S3)cn1 (single isomer, unassigned) [Example 10-3-2]', 'pIC50', '> 7.00');

# pIC50 (compound: Cc1ccnc(C(C)Nc2ccc3c(c2)Sc2cccc(-c4cc(N5CCOCC5)cc(=O)[nH]4)c2S3)c1 (stereo not drawn) [Example 1-12-29] ) is > 7.00

Reported pIC50 ( COc1ccc(CCN2CCCC(Nc3ccc4c(c3)Sc3cccc(-c5cc(N6CCOCC6)cc(=O)[nH]5)c3O4)CC2)cc1 (stereo not drawn) [Example 4-7] ) = 6.30 to 7.00

Looking up CC1CC(Nc2ccc3c(c2)Cc2cccc(-c4cc(N5CCOCC5)cc(=O)[nH]4)c2O3)CCN1CCc1ccccc1 (stereo not drawn) [Example 2-19-1] , I found its pIC50 recorded as 6.30 to 7.00

CN(C)[C@H]1CC[C@H](N(C)c2ccc3c(c2)Cc2cccc(-c4cc(N5CCOCC5)cc(=O)[nH]4)c2O3)CC1 [Example 2-10] has a reported pIC50 of 5.70 to 6.30

The compound identified as O=c1cc(N2CCOCC2)cc(-c2cccc3c2Oc2ccc(NCc4ccnc(Cl)c4)cc2S3)[nH]1 [Example 4-8-14] registered its pIC50 at 6.30 to 7.00
